Biological target: Corticotropin-releasing factor receptor 2/Corticotropin-releasing factor-binding protein (Homo sapiens, UniProt P24387+Q13324)
Sequence (Q13324 whole entry): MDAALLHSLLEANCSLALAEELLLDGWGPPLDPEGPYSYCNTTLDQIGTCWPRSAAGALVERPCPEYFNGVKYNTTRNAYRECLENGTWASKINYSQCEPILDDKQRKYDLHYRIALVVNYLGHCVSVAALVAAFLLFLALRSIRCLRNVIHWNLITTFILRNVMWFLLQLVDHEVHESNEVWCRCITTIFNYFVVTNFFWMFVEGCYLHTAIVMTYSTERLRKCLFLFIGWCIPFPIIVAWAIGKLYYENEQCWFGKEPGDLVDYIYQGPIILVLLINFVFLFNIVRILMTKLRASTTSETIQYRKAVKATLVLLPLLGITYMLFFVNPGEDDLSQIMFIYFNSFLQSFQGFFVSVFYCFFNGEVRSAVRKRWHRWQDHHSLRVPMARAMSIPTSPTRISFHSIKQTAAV
Sequence (P24387 whole entry): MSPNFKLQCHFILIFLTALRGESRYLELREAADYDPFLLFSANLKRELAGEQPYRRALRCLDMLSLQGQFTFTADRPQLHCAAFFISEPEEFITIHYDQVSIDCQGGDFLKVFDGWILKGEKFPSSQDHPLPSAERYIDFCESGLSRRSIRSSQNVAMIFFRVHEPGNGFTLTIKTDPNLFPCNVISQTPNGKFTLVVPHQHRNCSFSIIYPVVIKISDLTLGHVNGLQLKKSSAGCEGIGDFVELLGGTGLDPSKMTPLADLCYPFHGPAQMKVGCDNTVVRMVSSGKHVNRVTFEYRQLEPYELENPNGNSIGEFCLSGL
Assay: Dose Response confirmation of uHTS hits for small molecule antagonists of the CRF-binding protein and CRF-R2 receptor complex.
Assay type: functional
Conditions: read-out: IC50_Mean
Activity calls are given as the source filed them. Rule as the data show it: actives have a measured IC50 and inactives only a lower limit.
Please state which outcome applies, choosing from active, inactive

Consider the following illustrative entries.
molecule="O=C(Nc1ccccc1SCC1CSc2nc3ccccc3c(=O)n21)c1ccccc1 (stereo unspecified)" label=inactive
molecule=Cc1ccccc1OCC(=O)OCC(=O)c1c[nH]c2ccccc12 label=inactive
molecule="CC(C)(C)n1nnnc1C(c1ccc(Cl)cc1)N(Cc1cccnc1)Cc1ccco1 (stereo unspecified)" label=inactive
molecule=Cc1ccc(S(=O)(=O)NC(=Nc2ccc([N+](=O)[O-])cc2[N+](=O)[O-])c2ccccc2)cc1 label=active
molecule=O=C(CCl)Nc1nccs1 label=inactive

With those in mind, consider the next molecule.
Per the assay record, what outcome was assigned to Cc1ccc(CCNC(=O)C2CCC(=O)N2C2CCCC2)cc1 (stereo unspecified) ?
inactive
